Cited source: patent US20260125382A1

Biological target: CDK2 (Homo sapiens)
Construct: endogenous in cells; host or cells: MDA-MB-231
Assay: CDK protein degradation activity (Western blotting), CDK2
Format: cell-based
Conditions: MDA-MB-231 cells, 10 μM, 16 hours, Western blot
Property: Enzyme degradation CDK2 (% remaining) @ 10 μM; scope: individual compounds

Sample answers from the record:
- COMPOUND: "Cc1cccc(C(=O)N[C@H]2C[C@@H](n3cnc4c(Nc5ccc(N6CCN(CCC7CCN(C(=O)C8CCN(c9ccc%10c(c9)C(=O)N([C@H]9CCC(=O)NC9=O)C%10=O)CC8)CC7)CC6)cc5)ncnc43)C2)n1"
  RESULT: "30%"
- COMPOUND: "O=C1CC[C@H](N2C(=O)c3cc(F)c(N4CCC(C(=O)N5CCC(CN6CCN(c7ccc(Nc8ncnc9c8ncn9C8CC(NC(=O)c9cccc(Cl)n9)C8)cc7)CC6)CC5)CC4)cc3C2=O)C(=O)N1 (some centres unmarked)"
  RESULT: "30%"
- COMPOUND: "N#Cc1cccc(C(=O)N[C@H]2C[C@@H](n3cnc4c(Nc5ccc(N6CCN(CC7CCN(C(=O)CNc8cccc9c8C(=O)N(C8CCC(=O)NC8=O)C9=O)CC7)CC6)cc5)ncnc43)C2)n1 (some centres unmarked)"
  RESULT: "10/10/10%"
- COMPOUND: "O=C1CC[C@H](N2C(=O)C=C(N3CCC(C(=O)N4CCC(CC(=O)N5CCN(c6ccc(Nc7ncnc8c7ncn8[C@H]7C[C@@H](NC(=O)Cc8ccccc8)C7)cc6)CC5)CC4)CC3)C2=O)C(=O)N1"
  RESULT: "30/30/30%"
- COMPOUND: "O=C1CCC(c2cccc(OCC(=O)N3CCC4(CC(N5CCN(c6ccc(Nc7ncnc8c7ncn8[C@H]7C[C@@H](NC(=O)Cc8ccccc8)C7)cc6)CC5)C4)C3)c2)C(=O)N1 (some centres unmarked)"
  RESULT: "10/10/10%"
- COMPOUND: "O=C1CC[C@H](N2C(=O)c3ccc(N4CCC5(CC4)CC(N4CCC(c6ccc(Nc7ncnc8c7ncn8[C@H]7C[C@@H](NC(=O)Cc8ccccc8)C7)cc6)CC4)C5)cc3C2=O)C(=O)N1"
  RESULT: "10/10/10%"
- COMPOUND: "O=C1CCC(N2C(=O)c3ccc(N4CCC(CN5CCN(c6ccc(Nc7ncnc8c7ncn8[C@H]7C[C@@H](NC(=O)c8cccc(Cl)n8)C7)cc6)CC5)CC4)cc3C2=O)C(=O)N1 (some centres unmarked)"
  RESULT: "10/10/10%"

Okay, now this compound:
Query: Enzyme degradation CDK2 (% remaining) @ 10 μM; subject: Cc1cccc(C(=O)N[C@H]2C[C@@H](n3cnc4c(Nc5ccc(N6CCN(C7CC8(CCN(C(=O)C9CCN(c%10cc%11c(cc%10F)C(=O)N([C@H]%10CCC(=O)NC%10=O)C%11=O)CC9)CC8)C7)CC6)cc5)ncnc43)C2)n1
50/50/50%

---

Molecular target: CDK2 (Homo sapiens, UniProt P24941)
Construct: endogenous in cells; host or cells: MDA-MB-231
Assay: CDK protein degradation activity (Western blotting), CDK2
Type: cell-based
Settings: MDA-MB-231 cells, 1 μM, 16 hours, Western blot
Protocol: In order to evaluate the CDK protein degradation activity of the compounds according to the present invention, the following experiment was conducted. MDA-MB-231 cells were seeded at 5×10^5 cells per well in a 6-well plate. The next day, the compounds were treated in each well to achieve final concentrations of 100 nM, 1 μM, and 10 μM. […] Cell lysates were quantified and separated by size using sodium dodecyl sulfate-polyacrylamide gel electrophoresis (SDS-PAGE). […]
Property: Enzyme degradation CDK2 (% remaining) @ 1 μM; scope: individual compounds

- COMPOUND: "O=C1CCC(N2C(=O)c3cc(F)c(N4CCC(C(=O)N5CCC(CCN6CCN(c7ccc(Nc8ncnc9c8ncn9[C@H]8C[C@@H](NC(=O)c9c(Cl)cccc9Cl)C8)cc7)CC6)CC5)CC4)cc3C2=O)C(=O)N1 (stereo partly drawn) [Compound 463]"
  RESULT: "30/30/30%"
- COMPOUND: "Cc1cccc(C(=O)NC2CC(n3cnc4c(NC5CCN(CCOC6CCN(c7cccc8c7C(=O)N([C@H]7CCC(=O)NC7=O)C8=O)CC6)CC5)ncnc43)C2)n1 (stereo partly drawn) [Compound 48]"
  RESULT: "100/100/100%"

Okay, now this compound:
Query: Enzyme degradation CDK2 (% remaining) @ 1 μM; subject: N#Cc1cccc(C(=O)N[C@H]2C[C@@H](n3cnc4c(Nc5ccc(N6CCN(CC7CCN(C(=O)CNc8cccc9c8C(=O)N(C8CCC(=O)NC8=O)C9=O)CC7)CC6)cc5)ncnc43)C2)n1 (stereo partly drawn) [Compound 420]
10/10/10%
